experimental target: Cyclin-dependent kinase 4/cyclin D1 (Homo sapiens)
Sequence (P11802 whole entry): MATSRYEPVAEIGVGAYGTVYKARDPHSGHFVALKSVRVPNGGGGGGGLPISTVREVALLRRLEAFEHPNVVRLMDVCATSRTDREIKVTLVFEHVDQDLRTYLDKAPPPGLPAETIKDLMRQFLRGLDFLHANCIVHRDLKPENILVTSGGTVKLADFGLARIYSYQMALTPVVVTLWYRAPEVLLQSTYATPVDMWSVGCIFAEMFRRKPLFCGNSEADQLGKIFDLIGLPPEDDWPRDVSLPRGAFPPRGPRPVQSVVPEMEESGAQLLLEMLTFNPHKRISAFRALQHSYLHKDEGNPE
Sequence (P24385 whole entry, further chain): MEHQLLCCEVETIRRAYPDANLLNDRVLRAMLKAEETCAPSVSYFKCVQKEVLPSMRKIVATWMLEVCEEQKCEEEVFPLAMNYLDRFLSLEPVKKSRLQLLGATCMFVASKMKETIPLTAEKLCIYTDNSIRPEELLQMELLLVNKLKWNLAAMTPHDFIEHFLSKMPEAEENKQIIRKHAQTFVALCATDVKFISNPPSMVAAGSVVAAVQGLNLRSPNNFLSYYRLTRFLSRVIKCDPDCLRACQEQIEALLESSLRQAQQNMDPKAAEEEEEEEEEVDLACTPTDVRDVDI
test: Inhibition of CDK4/Cyclin D1 (unknown origin) by ADP-Glo kinase assay
measured metric: pIC50
By convention, pIC50 is the negative base-10 log of a molar concentration.

For the molecule shown here, Cn1cc(-c2ccc(N(C(=O)NCc3ccccc3)[C@H]3CC[C@H](Nc4ccc(C#N)cn4)CC3)cc2)ccc1=O , give the reported pIC50.
5.28

---

experimental target: CDK9/Cyclin K (Homo sapiens)
Sequence (P50750 whole entry): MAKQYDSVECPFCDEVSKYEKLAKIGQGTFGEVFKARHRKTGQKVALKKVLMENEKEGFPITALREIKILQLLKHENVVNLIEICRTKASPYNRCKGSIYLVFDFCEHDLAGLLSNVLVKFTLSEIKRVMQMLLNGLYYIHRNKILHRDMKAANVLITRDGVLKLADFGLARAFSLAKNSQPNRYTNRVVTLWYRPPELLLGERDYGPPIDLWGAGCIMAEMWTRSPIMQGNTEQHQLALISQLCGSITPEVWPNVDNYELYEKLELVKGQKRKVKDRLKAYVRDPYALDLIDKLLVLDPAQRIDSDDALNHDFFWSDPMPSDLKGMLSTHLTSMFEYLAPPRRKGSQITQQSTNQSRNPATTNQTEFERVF
Sequence (O75909 whole entry, further chain): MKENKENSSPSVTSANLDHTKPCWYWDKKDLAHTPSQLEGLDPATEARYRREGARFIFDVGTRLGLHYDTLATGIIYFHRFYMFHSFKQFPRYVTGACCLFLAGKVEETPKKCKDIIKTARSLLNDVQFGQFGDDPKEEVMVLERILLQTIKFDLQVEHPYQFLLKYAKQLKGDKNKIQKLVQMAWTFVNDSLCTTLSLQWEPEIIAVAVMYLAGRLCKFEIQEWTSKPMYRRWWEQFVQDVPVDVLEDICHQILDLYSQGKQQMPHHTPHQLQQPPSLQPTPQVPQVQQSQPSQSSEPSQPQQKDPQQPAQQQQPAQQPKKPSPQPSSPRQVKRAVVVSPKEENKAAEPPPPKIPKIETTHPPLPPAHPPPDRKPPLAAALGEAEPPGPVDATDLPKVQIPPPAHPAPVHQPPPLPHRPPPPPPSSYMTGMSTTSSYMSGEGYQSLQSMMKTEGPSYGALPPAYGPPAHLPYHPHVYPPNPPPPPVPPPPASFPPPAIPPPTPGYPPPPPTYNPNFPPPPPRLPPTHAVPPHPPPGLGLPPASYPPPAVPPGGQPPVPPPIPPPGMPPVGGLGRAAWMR
test: Inhibition of CDK9/Cyclin K (unknown origin) by ADP-Glo kinase assay
measured metric: IC50 (nM)
# unit: nM | format: bare number

Look up IC50 for this compound: Cn1cc(-c2ccc(N(C(=O)NCc3ccccc3)[C@H]3CC[C@H](Nc4ccc(C#N)cn4)CC3)cc2)ccc1=O
716
